- Test system: VM48 melanoma cells
- test-protocol: MTT colorimetric assay, overall cell growth, VM48
- Assay type: cell-based, human
- condition-set: MTT, 72 hours of incubation; read-out: In Vitro IC50 Growth Inhibitory Values, VM48
recorded-endpoint: IC50 (µM)
# number only, unit µM dropped from output

Provide measured IC50 value, entry: COc1cc(C(=O)O[C@@H]2CCC[C@H]2OC(=O)c2ccc(O)c(OC)c2)ccc1O (stereo in doubt)
29

Please list IC50 recorded for the molecule O=C(O[C@H]1CCCC[C@@H]1OC(=O)c1cc(O)c(O)c(O)c1)c1cc(O)c(O)c(O)c1 (stereo in doubt)
51

In one line, give reported IC50 of the entry O=C(O[C@@H]1CCCC[C@H]1OC(=O)c1cc(O)c(O)c(O)c1)c1cc(O)c(O)c(O)c1 (stereo in doubt) .
28

Quickly give me recorded IC50 for COc1cc(C(=O)O[C@@H]2CC[C@@H](OC(=O)c3ccc(O)c(OC)c3)C2)ccc1O (stereo in doubt)
53

Give the reported IC50 for this molecule. COc1cc(C(=O)O[C@H]2CC[C@H](OC(=O)c3ccc(O)c(OC)c3)C2)ccc1O (stereo in doubt)
59

Identify the reported IC50 for the following entry. COc1cc(C(=O)O[C@H]2CCCCC[C@@H]2OC(=O)c2ccc(O)c(OC)c2)ccc1O (relative stereo)
50

For COc1cc(C(=O)NC2CCC(NC(=O)c3ccc(O)c(OC)c3)CC2)ccc1O (mixture of isomers) , write its IC50.
98

Provide only the value of recorded IC50 for O=C(O[C@@H]1CCCC[C@H]1OC(=O)c1ccc(O)c(Cl)c1)c1ccc(O)c(Cl)c1 (relative stereo)
58

Give IC50 for COc1cc(C(=O)O[C@H]2CCC[C@@H]2OC(=O)c2ccc(O)c(OC)c2)ccc1O (stereo in doubt)
26

Hello, please tell me recorded IC50 for this one: COc1cc(C(=O)NCCCNC(=O)c2ccc(O)c(OC)c2)ccc1O
43

###

- System: OE33 oesophageal cancer cells
- test-protocol: MTT colorimetric assay, overall cell growth, OE33
- Assay type: cell-based, human
- condition-set: Homo sapiens, OE33, 72 hours of incubation, read-out: In Vitro IC50 Growth Inhibitory Values, OE33
recorded-endpoint: IC50 (µM)
Numeric answer only, unit µM assumed.

Please give measured IC50 of the following entry: O=C(OCCOC(=O)c1cc(O)c(O)c(O)c1)c1cc(O)c(O)c(O)c1 [DLT31]
19

For the compound COc1cc(C(=O)OC2CCCC[C@@H]2OC(=O)c2ccc(O)c(OC)c2)ccc1O (some centres unmarked) [DLT7] , give its measured IC50 value.
66

State its IC50 for this compound: COc1cc(C(=O)O[C@@H]2CCCC[C@H]2OC(=O)c2ccc(O)c(OC)c2)ccc1O [DLT8]
77

Annotate the compound COc1cc(C(=O)O[C@H]2CCC[C@H]2OC(=O)c2ccc(O)c(OC)c2)ccc1O [DLT14] with its measured IC50.
28

Tell me IC50 reported for O=C(OCCOC(=O)c1ccc(O)c(Cl)c1)c1ccc(O)c(Cl)c1 [DLT23]
73

###

Assign pIC50 to each entry below.
Recall that pIC50 is obtained by taking minus log10 of the concentration measured in molar.

Output reported pIC50 of the compound O=C(OCc1cc(COC(=O)c2ccc(O)c(F)c2)cc(COC(=O)c2ccc(O)c(F)c2)c1)c1ccc(O)c(F)c1 on UniProt Q9UQB9.
Sequence (Q9UQB9 whole entry): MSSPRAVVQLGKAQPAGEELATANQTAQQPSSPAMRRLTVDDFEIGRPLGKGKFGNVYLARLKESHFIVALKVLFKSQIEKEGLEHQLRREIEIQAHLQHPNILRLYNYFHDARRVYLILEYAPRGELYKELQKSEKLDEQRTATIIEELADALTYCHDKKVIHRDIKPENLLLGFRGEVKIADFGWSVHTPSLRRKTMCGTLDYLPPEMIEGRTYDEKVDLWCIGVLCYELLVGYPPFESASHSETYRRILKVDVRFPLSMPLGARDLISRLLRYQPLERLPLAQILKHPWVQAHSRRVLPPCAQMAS
5.33

Output reported pIC50 of the compound COc1cc(C(=O)OCc2cc(COC(=O)c3ccc(O)c(OC)c3)cc(COC(=O)c3ccc(O)c(OC)c3)c2)ccc1O on UniProt Q9UQB9.
5.48

Please look at O=C(OCc1cc(COC(=O)c2ccc(O)c(Cl)c2)cc(COC(=O)c2ccc(O)c(Cl)c2)c1)c1ccc(O)c(Cl)c1 and tell me its recorded pIC50 on UniProt Q9UQB9.
5.74
